Entries and their inhibition
# ASSAY_EXPLANATION: inhibitors of TNFa-induced NFkB p65 translocation, primary screen, imaging, HUVEC, MLSMR starter and 10KST1 sets (AID 438);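 further: compound added about 3h40 before a 20 min TNFalpha stimulation; signal is the nuclear over cytoplasmic p65 intensity ratio per well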
# COND: HUVEC TNFa-induced p65 nuclear translocation; at 2 µM, hits give high values, 0% TNFa-plus-vehicle, 100% no-TNFa wells
All answers are understood in %, so give the number only.

INSERT INTO assay_data (compound, measurement_label, observed_measurement) VALUES
  ('C=CCn1c(=O)[nH]c2cc(C(=O)N3CCN(c4cc(C)ccc4C)CC3)ccc2c1=O', 'inhibition', -28.5),
  ('COC(=O)c1c(NC(=O)c2ccc(S(=O)(=O)N3CCOCC3)cc2)sc2c1CCN(C)C2', 'inhibition', -9.1),
  ('CCOC(=O)N1CCN(S(=O)(=O)c2ccc(Br)s2)CC1', 'inhibition', -8.6),
  ('CCC(=O)Nc1ccc(F)c(Cl)c1', 'inhibition', 1.5);

Tell me the measured inhibition of `Cc1ccc(Nc2nnns2)cc1C` , please.
5

Tell me the measured inhibition of COc1ccc(OC(C)C(=O)N2CC(C)OC(C)C2)cc1 (configuration not stated) , please.
12.2

Tell me the measured inhibition of `CCNC(=O)Cn1cnc2c1c(=O)n(C)c(=O)n2C` , please.
-12.5

Tell me the measured inhibition of `CCNc1oc(COc2cccc(C)c2)nc1C#N` , please.
-2.1

Tell me the measured inhibition of `Cn1cccc1-c1nc2ccc(NC(=O)c3ccco3)cc2[nH]1` , please.
-0.9

Tell me the measured inhibition of `CC1CCN(S(=O)(=O)c2ccc(NC(=O)CSc3nnnn3C)cc2)CC1` , please.
-5.4

Tell me the measured inhibition of `COc1ccc(N(CC(=O)Nc2ccccc2SC)S(C)(=O)=O)cc1OC` , please.
-15.7

Tell me the measured inhibition of `COc1ccc(C)cc1-n1nnnc1SCC(=O)NC(=O)NCc1ccco1` , please.
-9.6
